# System: SW-620
# procedure_details: NCI tumour cell line growth inhibition, 48 h
Active and inactive are the calls of the source. Cut-off read from the data, not from the text of the source: active = GI50 up to about 1.1 µM and inactive = higher.

compound: CCOP(=O)(OCC)/C(C#N)=C/c1cccn1CC(C)C
target_or_system: SW-620
GI50: > 100 µM (inactive)
--
compound: COc1cccc(/C=N/n2c(C)n[nH]c2=O)c1
target_or_system: SW-620
GI50: > 100 µM (inactive)
--
compound: COC(=O)CCC(C)[C@H]1CCC2C3C(C[C@H](OC(C)=O)[C@@]21C)[C@@]1(C)CCC2(C[C@H]1C[C@H]3OC(C)=O)OOC1(CCCCCCC1)OO2 (some centres not stated)
target_or_system: SW-620
GI50: 6.3 µM (inactive)
--
compound: CC(C)=CCc1[nH]c2ccccc2c1C1=C(O)C(=O)C(c2c(CC=C(C)C)[nH]c3ccccc23)=C(O)C1=O
target_or_system: SW-620
GI50: 3.27 µM (inactive)
--
compound: Cc1[nH]c2ccccc2c1C(=O)CC1(O)C(=O)Nc2ccccc21 (configuration not stated)
target_or_system: SW-620
GI50: > 100 µM (inactive)
--
compound: CCOC(=O)N1CCN(P(=O)(Nc2ccc3[nH]c(NC(=O)OC)nc3c2)Oc2ccccc2)CC1 (configuration not stated)
target_or_system: SW-620
GI50: > 100 µM (inactive)
--
compound: CC(C)(C)O/C=C1/C(=O)OC2C[C@@H](O[Si](C)(C)C(C)(C)C)CC12 (some centres not stated)
target_or_system: SW-620
GI50: 54.3 µM (inactive)

====

# Tested on: TK-10
# procedure_details: NCI tumour cell line growth inhibition, 48 h
Active and inactive are the calls of the source. No stated cut-off is given here; in the data, active = GI50 up to about 1.1 µM and inactive = higher.

molecule: CCOC(=O)[C@H]1C[C@@H](C(=O)c2ccccc2)N2N=C(c3ccc(Br)cc3)C=C[C@H]12
target_or_system: TK-10
GI50: > 100 µM (inactive)

molecule: Nc1c(C(=O)O)nnc2cc(Cl)c(Cl)cc12
target_or_system: TK-10
GI50: > 100 µM (inactive)

molecule: CC(=O)O[C@H]1CCC2[C@@H]3CCC4Nc5[nH]ncc5C[C@]4(C)C3CC[C@@]21C (stereo not given in full)
target_or_system: TK-10
GI50: 74.6 µM (inactive)

molecule: CC(=O)Oc1c2c(c3n(c1=O)CCCC3)C(=O)N(c1ccccc1)C2=O
target_or_system: TK-10
GI50: 94.6 µM (inactive)

molecule: O=C(CCc1nnc2s/c(=C\c3ccc(Cl)c(Cl)c3)c(=O)n12)Nc1ccc(Cl)c(Cl)c1
target_or_system: TK-10
GI50: > 100 µM (inactive)

molecule: [N-]=[N+]=Nc1cc(=O)[nH]nc1-c1ccccc1
target_or_system: TK-10
GI50: > 100 µM (inactive)

molecule: Oc1ccc(Cc2nccc3cc(O)c(O)cc23)cc1O
target_or_system: TK-10
GI50: 32.7 µM (inactive)

molecule: COc1ccc(-n2c(Cn3nnc(-c4cccnc4)n3)nn(C3OC(COC(=O)c4ccccc4)C(OC(=O)c4ccccc4)C3OC(=O)c3ccccc3)c2=S)cc1 (stereo not given)
target_or_system: TK-10
GI50: > 100 µM (inactive)

molecule: CN1Cc2cc3cc4c(cc3nc2N(C)C1)OCCO4
target_or_system: TK-10
GI50: > 100 µM (inactive)

molecule: Cc1[nH]c2ccccc2c1C(=O)CC1(O)C(=O)Nc2ccccc21 (stereo not given)
target_or_system: TK-10
GI50: > 100 µM (inactive)
